Could you please report measured kd for the items listed next?
# Tgt: T1, hANGPTL4(26-406)-His (Homo sapiens, UniProt Q9BY76)
# T1 construct: purchased R&D Systems
# T1 sequence (Q9BY76 26-406): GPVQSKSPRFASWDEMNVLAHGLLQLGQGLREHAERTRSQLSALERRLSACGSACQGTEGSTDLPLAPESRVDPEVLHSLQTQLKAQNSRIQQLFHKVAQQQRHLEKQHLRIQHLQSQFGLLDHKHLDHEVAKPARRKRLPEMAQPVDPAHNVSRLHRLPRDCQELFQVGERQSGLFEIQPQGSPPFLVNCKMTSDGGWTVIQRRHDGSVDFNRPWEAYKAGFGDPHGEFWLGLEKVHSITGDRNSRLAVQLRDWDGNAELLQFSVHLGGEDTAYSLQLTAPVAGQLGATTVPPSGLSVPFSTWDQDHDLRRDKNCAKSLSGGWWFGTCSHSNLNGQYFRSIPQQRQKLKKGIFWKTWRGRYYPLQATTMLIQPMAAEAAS
# Assay Details: BIACORE, full mAb or Fab over amino-coupled hANGPTL4(26-406)-His
# Assay type: binding
# Protocol Conditions: pH 5.75, 25° C.
Give bare numbers, in s⁻¹.

Use the examples below as a reference point.
H1H284P: anti-hANGPTL4 antibody, hIgG1 isotype, HCVR/LCVR SEQ ID NOs 90/92 (antibody, V domains shown) VH: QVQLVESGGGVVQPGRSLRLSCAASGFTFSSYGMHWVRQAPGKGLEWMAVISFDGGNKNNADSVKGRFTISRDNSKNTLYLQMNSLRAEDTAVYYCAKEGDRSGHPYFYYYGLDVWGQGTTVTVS VL: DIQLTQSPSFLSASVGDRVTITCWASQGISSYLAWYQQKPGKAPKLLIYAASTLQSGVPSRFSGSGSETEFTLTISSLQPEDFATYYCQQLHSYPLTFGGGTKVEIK; 0.000272
H1H268P: anti-hANGPTL4 antibody, hIgG1 isotype, HCVR/LCVR SEQ ID NOs 42/44 (antibody, V domains shown) VH: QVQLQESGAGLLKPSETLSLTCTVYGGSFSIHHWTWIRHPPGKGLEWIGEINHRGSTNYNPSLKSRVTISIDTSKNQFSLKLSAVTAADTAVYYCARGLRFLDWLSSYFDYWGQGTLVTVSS VL: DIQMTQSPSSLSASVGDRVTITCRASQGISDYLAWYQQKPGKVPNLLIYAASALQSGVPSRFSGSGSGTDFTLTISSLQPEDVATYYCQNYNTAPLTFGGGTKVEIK; 0.000446

Please look at the following molecule next.
For H1H268P Fab: Fab fragment of H1H268P prepared by papain digestion (antibody, V domains shown) VH: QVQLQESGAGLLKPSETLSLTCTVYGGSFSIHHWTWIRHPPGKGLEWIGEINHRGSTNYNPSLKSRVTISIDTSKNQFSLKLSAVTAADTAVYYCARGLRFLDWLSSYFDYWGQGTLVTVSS VL: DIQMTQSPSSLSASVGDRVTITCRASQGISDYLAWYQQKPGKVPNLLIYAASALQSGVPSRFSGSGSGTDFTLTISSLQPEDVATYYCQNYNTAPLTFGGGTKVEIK the molecule record lists kd as 0.00657
